Below, each entry is listed alongside its reported Enzymatic activity inhibition (EC50 nM).
- experimental_target: T1, human CD39 on the cell surface (human, UniProt P49961 1-510)
- T1 sequence (looked up): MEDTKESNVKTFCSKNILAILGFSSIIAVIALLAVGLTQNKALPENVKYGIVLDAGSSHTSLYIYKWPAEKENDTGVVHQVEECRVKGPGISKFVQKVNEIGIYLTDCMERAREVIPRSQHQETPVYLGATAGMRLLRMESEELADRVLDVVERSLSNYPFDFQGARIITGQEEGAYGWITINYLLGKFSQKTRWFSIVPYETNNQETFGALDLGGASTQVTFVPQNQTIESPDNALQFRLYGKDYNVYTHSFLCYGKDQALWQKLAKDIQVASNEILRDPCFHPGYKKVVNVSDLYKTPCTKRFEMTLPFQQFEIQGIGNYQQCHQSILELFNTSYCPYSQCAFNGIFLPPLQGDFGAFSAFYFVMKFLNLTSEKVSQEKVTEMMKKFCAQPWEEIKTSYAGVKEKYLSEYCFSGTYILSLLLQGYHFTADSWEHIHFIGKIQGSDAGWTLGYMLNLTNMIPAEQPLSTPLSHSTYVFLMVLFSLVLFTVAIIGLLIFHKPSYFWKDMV
- test_description: cell-based or functional assay
# value in nM; strip the unit string

Known Enzymatic activity inhibition (EC50 nM) results, listed for orientation:
# binder, Enzymatic activity inhibition (EC50 nM)
data = [
    ("humanized antibody F03-8 (antibody, human IgG4 S228P, kappa, V domains shown, Human IgG4 (S228P) and human kappa constant regions) VH: QVQLVQSGAEVKKPGASVKVSCKASGYTFTNYWMYWVRQAPGQGLEWIGRIAPSSGATKYNEKFKNRATLTVDTSISTAYMELSRLRSDDTAVYYCARSGIYYDYDWFFDVWGQGTTVTVSS VL: DIQMTQSPSSLSASVGDRVTITCKASQDINKYIGWYQQKPGKAPKLLIHYTSTLQPGVPSRFSGSGSGTDFTFTISSLQPEDIATYYCLQYHALLFTFGQGTKLEIKR", 0.06),
    ("chimeric antibody F03 (antibody, human IgG4 S228P, kappa, V domains shown, Variable regions of murine mF03 on human IgG4 (S228P) and human kappa constant regions; expressed in CHO-S cells) VH: QVQLQQPGAELVKPGASVKLSCKTSGYTFTNYWMYWVKHRPGRGLEWIGRIAPSSGATKYNEKFKNKATLTVDKPSSTAYMQLSSLTSEDSAVYYCARSGIYYDYDWFFDVSGTGTTVTVSS VL: DIQMTQSPSSLSASLGGKVTITCKASQDINKYIGWYQHAPGKGPRLLIHYTSTLQPGIPSRFSGSGSGRDYSLSISNLEPEDIATYYCLQYHALLFTFGSGTKLELKR", 0.09),
]

Attention now turns to another entry.
response.value for humanized antibody F03-6 (antibody, human IgG4 S228P, kappa, V domains shown, Human IgG4 (S228P) heavy chain constant region and human kappa constant region) VH: QVQLVQSGAEVKKPGASVKVSCKASGYTFTNYWMYWVRQAPGQGLEWMGRIAPSSGATKYNEKFKNRVTMTRDTSISTAYMELSRLRSDDTAVYYCARSGIYYDYDWFFDVWGQGTTVTVSS VL: DIQMTQSPSSLSASVGDRVTITCKASQDINKYIGWYQQKPGKAPKLLIHYTSTLQPGVPSRFSGSGSGTDFTFTISSLQPEDIATYYCLQYHALLFTFGQGTKLEIKR (field: Enzymatic activity inhibition (EC50 nM)) = 0.09
